target_desc: Tyrosine-protein phosphatase non-receptor type 6 (Homo sapiens)
Sequence (P29350 whole entry): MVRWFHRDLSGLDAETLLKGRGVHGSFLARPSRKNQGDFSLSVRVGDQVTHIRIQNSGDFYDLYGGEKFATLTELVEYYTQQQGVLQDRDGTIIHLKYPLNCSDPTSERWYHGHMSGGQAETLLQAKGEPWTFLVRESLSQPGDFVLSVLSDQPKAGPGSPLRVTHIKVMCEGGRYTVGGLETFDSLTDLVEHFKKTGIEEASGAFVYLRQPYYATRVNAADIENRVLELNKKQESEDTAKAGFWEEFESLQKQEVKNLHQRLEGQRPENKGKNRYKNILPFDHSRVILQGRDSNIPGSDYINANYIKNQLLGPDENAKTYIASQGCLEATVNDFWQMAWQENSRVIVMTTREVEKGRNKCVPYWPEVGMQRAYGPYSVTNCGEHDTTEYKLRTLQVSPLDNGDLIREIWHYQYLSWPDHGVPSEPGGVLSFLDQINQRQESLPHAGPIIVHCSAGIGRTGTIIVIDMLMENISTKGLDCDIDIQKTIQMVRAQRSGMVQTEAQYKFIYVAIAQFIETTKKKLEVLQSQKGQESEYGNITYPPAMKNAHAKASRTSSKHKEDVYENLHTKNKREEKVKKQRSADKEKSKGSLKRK
endpoint: IC50 (nM)

smiles_text=O=S(=O)(O)c1ccc2cc(/N=N/c3cc(S(=O)(=O)O)c4cccnc4c3O)ccc2c1 endpoint=IC50 output_unit=nM value_observed=335

These measurements were taken from ChEMBL document CHEMBL5241065.
